system: SMARCA4 (Homo sapiens)
Construct: SMARCA4-HiBiT knock-in Hela monoclonal cell (CS3023226); host or cells: HeLa monoclonal cells with heterozygous HiBiT knock-in at the endogenous SMARCA4 locus
assay.notes: SMARCA4 HiBiT degradation assay in HeLa cells
Format: cell-based
condition.summary: 18 hours, highest concentration 10 μM
metric.name: Dmax

molecule	system	result
O=C1CCC(N2Cc3ccc(N4CCN(Cc5ccc(O[C@@H]6C[C@@H]7CNc8nnc(-c9cc(F)cc(Cl)c9O)cc8N7C6)cc5)CC4)cc3C2=O)C(=O)N1 (stereo partly drawn)	SMARCA4 (Homo sapiens)	> 75%
Cc1c(CN2CCN(c3ccc4c(c3)C(=O)N(C3CCC(=O)NC3=O)C4)CC2)ccc(O[C@@H]2C[C@@H]3CNc4nnc(-c5cc(F)cc(F)c5O)cc4N3C2)c1C (stereo partly drawn)	SMARCA4 (Homo sapiens)	> 75%
O=C1CC[C@H](N2Cc3ccc(C4CCN(Cc5ccc(O[C@H]6CN7c8cc(-c9cccc(F)c9O)nnc8NC[C@@]7(C(F)F)C6)nc5)CC4)cc3C2=O)C(=O)N1	SMARCA4 (Homo sapiens)	< 50%

* * *

system: SMARCA4 (Homo sapiens)
Construct: SMARCA4-HiBiT knock-in Hela monoclonal cell (CS3023226); host or cells: HeLa monoclonal cells with heterozygous HiBiT knock-in at the endogenous SMARCA4 locus
assay.notes: SMARCA4 HiBiT degradation assay in HeLa cells
Type: cell-based
condition.summary: 18 hours, highest concentration 10 μM
Each entry below carries its reported Dmax.
metric.name: Dmax

compound	system	metric.name	result
CC[C@]12CNc3nnc(-c4cccc(Cl)c4O)cc3N1C[C@H](Oc1cnc(CN3CCC(c4ccc5c(c4)C(=O)N([C@H]4CCC(=O)NC4=O)C5)CC3)c(Cl)c1)C2	SMARCA4 (Homo sapiens)	Dmax	50 to 75%
O=C1CCC(N2Cc3ccc(N4CCN(Cc5ccc(O[C@@H]6C[C@@H]7CNc8nnc(-c9cccc(F)c9O)cc8N7C6)cc5)CC4)cc3C2=O)C(=O)N1 (some centres unmarked)	SMARCA4 (Homo sapiens)	Dmax	> 75%
C[C@@H]1CN(CC2CCN(c3ccc4c(c3)C(=O)N(C3CCC(=O)NC3=O)C4)CC2)C[C@H](C)N1C(=O)[C@@H]1C[C@@H]2CNc3nnc(-c4cccc(F)c4O)cc3N2C1 (some centres unmarked)	SMARCA4 (Homo sapiens)	Dmax	< 50%
Cc1c(CN2CCC(c3ccc4c(c3)C(=O)N([C@H]3CCC(=O)NC3=O)C4)CC2)cnc(O[C@H]2CN3c4cc(-c5cccc(F)c5O)nnc4NC[C@]3(C(F)F)C2)c1F	SMARCA4 (Homo sapiens)	Dmax	> 75%
Cc1cc(S[C@@H]2C[C@@H]3CNc4nnc(-c5cc(F)cc(F)c5O)cc4N3C2)ncc1CN1CCN(c2ccc3c(c2)C(=O)N([C@H]2CCC(=O)NC2=O)C3)CC1	SMARCA4 (Homo sapiens)	Dmax	< 50%

* * *

system: SMARCA4 (Homo sapiens, UniProt P51532)
Construct: SMARCA4-HiBiT knock-in Hela monoclonal cell (CS3023226); host or cells: HeLa monoclonal cells with heterozygous HiBiT knock-in at the endogenous SMARCA4 locus
Sequence (P51532 whole entry): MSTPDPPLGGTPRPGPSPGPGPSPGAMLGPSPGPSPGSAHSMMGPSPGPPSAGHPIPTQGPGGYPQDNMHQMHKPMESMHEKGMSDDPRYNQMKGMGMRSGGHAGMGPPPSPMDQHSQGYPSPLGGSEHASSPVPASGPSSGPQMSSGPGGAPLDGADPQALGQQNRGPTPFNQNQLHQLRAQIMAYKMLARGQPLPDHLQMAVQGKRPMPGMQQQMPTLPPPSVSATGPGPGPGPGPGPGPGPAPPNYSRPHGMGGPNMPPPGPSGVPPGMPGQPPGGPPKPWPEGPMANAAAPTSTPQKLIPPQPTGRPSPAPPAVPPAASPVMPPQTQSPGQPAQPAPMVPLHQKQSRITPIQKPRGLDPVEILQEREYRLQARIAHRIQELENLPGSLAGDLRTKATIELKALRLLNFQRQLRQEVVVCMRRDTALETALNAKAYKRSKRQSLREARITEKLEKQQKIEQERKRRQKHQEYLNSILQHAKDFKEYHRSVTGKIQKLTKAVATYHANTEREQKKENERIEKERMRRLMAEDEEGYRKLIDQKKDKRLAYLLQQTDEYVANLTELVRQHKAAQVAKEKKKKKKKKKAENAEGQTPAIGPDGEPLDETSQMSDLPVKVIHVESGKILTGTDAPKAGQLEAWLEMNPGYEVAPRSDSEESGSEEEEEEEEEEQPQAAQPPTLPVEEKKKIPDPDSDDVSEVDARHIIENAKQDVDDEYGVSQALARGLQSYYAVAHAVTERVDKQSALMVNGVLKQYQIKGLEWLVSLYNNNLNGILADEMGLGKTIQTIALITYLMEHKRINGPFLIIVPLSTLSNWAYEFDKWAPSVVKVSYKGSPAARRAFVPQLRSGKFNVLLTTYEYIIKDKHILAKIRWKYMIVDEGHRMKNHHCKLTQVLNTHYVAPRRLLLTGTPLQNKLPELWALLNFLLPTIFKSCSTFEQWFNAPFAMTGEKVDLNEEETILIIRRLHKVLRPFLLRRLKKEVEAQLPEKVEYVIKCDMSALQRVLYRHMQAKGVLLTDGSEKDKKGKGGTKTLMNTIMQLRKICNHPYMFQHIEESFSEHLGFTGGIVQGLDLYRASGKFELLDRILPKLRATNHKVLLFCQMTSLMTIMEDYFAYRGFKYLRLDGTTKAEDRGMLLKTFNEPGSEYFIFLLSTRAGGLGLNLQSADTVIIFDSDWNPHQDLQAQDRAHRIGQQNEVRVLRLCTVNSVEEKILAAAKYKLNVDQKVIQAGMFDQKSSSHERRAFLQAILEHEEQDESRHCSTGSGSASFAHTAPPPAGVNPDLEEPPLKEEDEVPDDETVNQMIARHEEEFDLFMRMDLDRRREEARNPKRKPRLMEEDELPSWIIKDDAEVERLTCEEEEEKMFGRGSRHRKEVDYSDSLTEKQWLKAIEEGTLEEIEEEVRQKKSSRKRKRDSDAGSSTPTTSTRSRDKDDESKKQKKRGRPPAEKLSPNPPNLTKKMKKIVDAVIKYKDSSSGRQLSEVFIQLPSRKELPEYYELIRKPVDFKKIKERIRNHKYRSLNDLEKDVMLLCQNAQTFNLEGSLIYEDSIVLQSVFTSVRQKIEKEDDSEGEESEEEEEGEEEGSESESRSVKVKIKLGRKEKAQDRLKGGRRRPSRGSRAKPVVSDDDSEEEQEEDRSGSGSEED
assay.notes: SMARCA4 HiBiT degradation assay in HeLa cells
Assay type: cell-based
condition.summary: 18 hours, highest concentration 10 μM
# Lookup of reported DC50 keyed by entry
metric.name: DC50

compound	metric.name	result
Cc1nc(O[C@H]2CN3c4cc(-c5cccc(F)c5O)nnc4NC[C@]3(C(F)F)C2)nc(C)c1CN1CCN(c2ccc3c(c2)C(=O)N(C2CCC(=O)NC2=O)C3)CC1 (stereo partly drawn) [Example 41]	DC50	100 to 1000 nM
CC[C@@]12CNc3nnc(-c4cccc(F)c4O)cc3N1C[C@H](Oc1cnc(CN3CCN(c4ccc5c(c4)C(=O)N([C@H]4CCC(=O)NC4=O)C5)CC3)c(C)n1)C2 [Example 57]	DC50	100 to 1000 nM
Cc1nc(O[C@H]2CN3c4cc(-c5cccc(F)c5O)nnc4NC[C@@]3(C)C2)nc(C)c1CN1CCN(c2ccc3c(c2)C(=O)N([C@H]2CCC(=O)NC2=O)C3)CC1 [Example 75]	DC50	100 to 1000 nM
CC(C)c1cc(O[C@@H]2C[C@@H]3CNc4nnc(-c5cc(F)cc(F)c5O)cc4N3C2)ccc1CN1CCN(c2ccc3c(c2)C(=O)N(C2CCC(=O)NC2=O)C3)CC1 (stereo partly drawn) [Example 16]	DC50	< 100 nM
Cc1cc(O[C@@H]2C[C@@H]3CNc4nnc(-c5cc(F)cc(F)c5O)cc4N3C2)ncc1CN1CCN(c2ccc3c(c2)C(=O)N(C2CCC(=O)NC2=O)C3)CC1 (stereo partly drawn) [Example 27]	DC50	< 100 nM
Cc1cc(CN2CCN(c3ccc4c(c3)C(=O)N(C3CCC(=O)NC3=O)C4)CC2)cnc1O[C@@H]1C[C@@H]2CNc3nnc(-c4cc(F)cc(F)c4O)cc3N2C1 (stereo partly drawn) [Example 31]	DC50	< 100 nM
CC(C)c1cc(CN2CCN(c3ccc4c(c3)C(=O)N(C3CCC(=O)NC3=O)C4)CC2)ccc1O[C@@H]1C[C@@H]2CNc3nnc(-c4cc(F)cc(F)c4O)cc3N2C1 (stereo partly drawn) [Example 14]	DC50	< 100 nM
CC(C)c1nc(O[C@H]2CN3c4cc(-c5cccc(F)c5O)nnc4NC[C@]3(C(F)F)C2)ncc1CN1CCN(c2ccc3c(c2)C(=O)N(C2CCC(=O)NC2=O)C3)CC1 (stereo partly drawn) [Example 50]	DC50	< 100 nM
CC[C@]12CNc3nnc(-c4cccc(C)c4O)cc3N1C[C@H](Oc1cnc(CN3CCC(c4ccc5c(c4)C(=O)N([C@H]4CCC(=O)NC4=O)C5)CC3)c(C)c1)C2 [Example 97]	DC50	< 100 nM
Cc1cc(O[C@H]2CN3c4cc(-c5cccc(F)c5O)nnc4NC[C@@]3(C)C2)ncc1CN1CCN(c2ccc3c(c2)C(=O)N(C2CCC(=O)NC2=O)C3)CC1 (stereo partly drawn) [Example 55]	DC50	< 100 nM
Cc1nc(O[C@H]2CN3c4cc(-c5cccc(F)c5O)nnc4NC[C@]3(CF)C2)c(F)cc1CN1CCN(c2ccc3c(c2)C(=O)N([C@H]2CCC(=O)NC2=O)C3)CC1 [Example 69]	DC50	< 100 nM
CC[C@]12CNc3nnc(-c4cccc(F)c4O)cc3N1C[C@H](Oc1cnc(CN3CCN(c4ccc5c(c4)CN([C@H]4CCC(=O)NC4=O)C5=O)CC3)c(C)c1)C2 [Example 74]	DC50	< 100 nM

Data provenance: patent US20240165244A1
